- Test system: OVCAR-4
- test.name: Antiproliferative activity against human OVCAR-4 cells assessed as cell growth inhibition at 10 uM incubated for 48 hrs by sulforhodamine B assay relative to control
- Type: functional
Let's look at some compounds and their measured inhibition at 10 µM.
experimental.endpoint: inhibition at 10 µM

{"structure": "c1ccc2c(-c3cn4ccnc4c(-c4ccc5ncn(C6CCCCC6)c5c4)n3)cccc2c1", "result": "19.7%"}
{"structure": "Cc1cccc(-c2cn3ccnc3c(-c3ccc4ncn(Cc5ccccc5)c4c3)n2)c1", "result": "19.3%"}
{"structure": "c1ccc(Cn2cnc3ccc(-c4nc(-c5ccc6c(c5)ncn6C5CCCCC5)cn5ccnc45)cc32)cc1", "result": "83.2%"}
{"structure": "COc1ccc(-c2cn3ccnc3c(-c3ccc4ncn(C5CCCCC5)c4c3)n2)cc1", "result": "46.4%"}
{"structure": "Fc1ccccc1-c1cn2ccnc2c(-c2ccc3ncn(C4CCCCC4)c3c2)n1", "result": "4.51%"}

###

Let's look at some molecules and their measured inhibition at 10 µM.
- Tested on: UO-31
- test.name: Antiproliferative activity against human UO-31 cells assessed as cell growth inhibition at 10 uM incubated for 48 hrs by sulforhodamine B assay relative to control
- Format: functional

{"structure": "Brc1ccc(-c2cn3ccnc3c(-c3ccc4ncn(C5CCCCC5)c4c3)n2)cc1", "inhibition at 10 µM [%]": 42.9}
{"structure": "CCc1ccc(-c2cn3ccnc3c(-c3ccc4ncn(Cc5ccccc5)c4c3)n2)cc1", "inhibition at 10 µM [%]": 57.9}
{"structure": "Clc1ccc(-c2cn3ccnc3c(-c3ccc4ncn(C5CCCCC5)c4c3)n2)cc1", "inhibition at 10 µM [%]": 36.1}
{"structure": "COc1ccc(-c2cn3ccnc3c(-c3ccc4ncn(C5CCCCC5)c4c3)n2)cc1", "inhibition at 10 µM [%]": 61.5}
{"structure": "O=Cc1ccc(-c2cn3ccnc3c(-c3ccc4ncn(Cc5ccccc5)c4c3)n2)cc1", "inhibition at 10 µM [%]": 82.2}
{"structure": "Cc1cccc(-c2cn3ccnc3c(-c3ccc4ncn(Cc5ccccc5)c4c3)n2)c1", "inhibition at 10 µM [%]": 41.7}
{"structure": "c1cn2cc(-c3ccsc3)nc(-c3ccc4ncn(C5CCCCC5)c4c3)c2n1", "inhibition at 10 µM [%]": 23.1}
{"structure": "O=Cc1ccc(-c2cn3ccnc3c(-c3ccc4ncn(C5CCCCC5)c4c3)n2)cc1", "inhibition at 10 µM [%]": 82.2}
{"structure": "CC(=O)c1ccc(-c2cn3ccnc3c(-c3ccc4ncn(C5CCCCC5)c4c3)n2)cc1", "inhibition at 10 µM [%]": 23.1}
{"structure": "Brc1cn2ccnc2c(-c2ccc3ncn(C4CCCCC4)c3c2)n1", "inhibition at 10 µM [%]": 37.6}

###

- Test system: U-251
- test.name: Antiproliferative activity against human U-251 cells assessed as cell growth inhibition at 10 uM incubated for 48 hrs by sulforhodamine B assay relative to control
- Assay type: functional

{"structure": "Fc1ccccc1-c1cn2ccnc2c(-c2ccc3ncn(C4CCCCC4)c3c2)n1", "system.tested": "U-251", "inhibition at 10 µM": "11.4%"}
{"structure": "Cc1cccc(-c2cn3ccnc3c(-c3ccc4ncn(Cc5ccccc5)c4c3)n2)c1", "system.tested": "U-251", "inhibition at 10 µM": "19.4%"}
{"structure": "c1ccc(-c2cn3ccnc3c(-c3ccc4ncn(C5CCCCC5)c4c3)n2)cc1", "system.tested": "U-251", "inhibition at 10 µM": "37.3%"}
{"structure": "Clc1ccc(-c2cn3ccnc3c(-c3ccc4ncn(C5CCCCC5)c4c3)n2)cc1", "system.tested": "U-251", "inhibition at 10 µM": "11.3%"}
{"structure": "c1ccc(Cn2cnc3ccc(-c4nc(-c5ccc6c(c5)ncn6C5CCCCC5)cn5ccnc45)cc32)cc1", "system.tested": "U-251", "inhibition at 10 µM": "-22.8%"}
{"structure": "O=Cc1ccc(-c2cn3ccnc3c(-c3ccc4ncn(C5CCCCC5)c4c3)n2)cc1", "system.tested": "U-251", "inhibition at 10 µM": "32%"}
{"structure": "CC(=O)c1ccc(-c2cn3ccnc3c(-c3ccc4ncn(C5CCCCC5)c4c3)n2)cc1", "system.tested": "U-251", "inhibition at 10 µM": "3.02%"}
{"structure": "Brc1cn2ccnc2c(-c2ccc3ncn(C4CCCCC4)c3c2)n1", "system.tested": "U-251", "inhibition at 10 µM": "1.5%"}
{"structure": "COc1ccc(-c2cn3ccnc3c(-c3ccc4ncn(C5CCCCC5)c4c3)n2)cc1", "system.tested": "U-251", "inhibition at 10 µM": "80.9%"}
{"structure": "c1ccc(Cn2cnc3ccc(-c4nc(-c5cccc6ccccc56)cn5ccnc45)cc32)cc1", "system.tested": "U-251", "inhibition at 10 µM": "5.53%"}
{"structure": "c1cn2cc(-c3ccsc3)nc(-c3ccc4ncn(C5CCCCC5)c4c3)c2n1", "system.tested": "U-251", "inhibition at 10 µM": "6.09%"}
{"structure": "Brc1ccc(-c2cn3ccnc3c(-c3ccc4ncn(C5CCCCC5)c4c3)n2)cc1", "system.tested": "U-251", "inhibition at 10 µM": "23.7%"}
{"structure": "c1cn2cc(-c3ccc4ncn(C5CCCCC5)c4c3)nc(-c3ccc4ncn(C5CCCCC5)c4c3)c2n1", "system.tested": "U-251", "inhibition at 10 µM": "69%"}
{"structure": "c1csc(-c2cn3ccnc3c(-c3ccc4ncn(C5CCCCC5)c4c3)n2)c1", "system.tested": "U-251", "inhibition at 10 µM": "3.92%"}
{"structure": "FC(F)(F)c1cccc(-c2cn3ccnc3c(-c3ccc4ncn(C5CCCCC5)c4c3)n2)c1", "system.tested": "U-251", "inhibition at 10 µM": "5.93%"}
{"structure": "c1cn2cc(-c3ccc4c(c3)ncn4C3CCCCC3)nc(-c3ccc4ncn(C5CCCCC5)c4c3)c2n1", "system.tested": "U-251", "inhibition at 10 µM": "38.7%"}
{"structure": "COc1ccccc1-c1cn2ccnc2c(-c2ccc3ncn(C4CCCCC4)c3c2)n1", "system.tested": "U-251", "inhibition at 10 µM": "21%"}
{"structure": "O=Cc1ccc(-c2cn3ccnc3c(-c3ccc4ncn(Cc5ccccc5)c4c3)n2)cc1", "system.tested": "U-251", "inhibition at 10 µM": "32%"}
{"structure": "CCc1ccc(-c2cn3ccnc3c(-c3ccc4ncn(Cc5ccccc5)c4c3)n2)cc1", "system.tested": "U-251", "inhibition at 10 µM": "46.1%"}
{"structure": "Fc1ccc(-c2cn3ccnc3c(-c3ccc4ncn(C5CCCCC5)c4c3)n2)cc1", "system.tested": "U-251", "inhibition at 10 µM": "7.94%"}

###

- test.name: n-Octanol/phosphate buffer partition coefficient, logP of the compound at pH 7.4 incubated for 85 mins by shake-flask method
- Type: physicochemical
experimental.endpoint: logD at 1.417 h

{"structure": "O=Cc1ccc(-c2cn3ccnc3c(-c3ccc4ncn(C5CCCCC5)c4c3)n2)cc1", "readout.number": 1.5}
{"structure": "Fc1ccccc1-c1cn2ccnc2c(-c2ccc3ncn(C4CCCCC4)c3c2)n1", "readout.number": 1.95}
{"structure": "COc1ccccc1-c1cn2ccnc2c(-c2ccc3ncn(C4CCCCC4)c3c2)n1", "readout.number": 1.72}
{"structure": "c1ccc(-c2cn3ccnc3c(-c3ccc4ncn(C5CCCCC5)c4c3)n2)cc1", "readout.number": 1.74}
{"structure": "Clc1ccc(-c2cn3ccnc3c(-c3ccc4ncn(C5CCCCC5)c4c3)n2)cc1", "readout.number": 1.51}
{"structure": "CC(=O)c1ccc(-c2cn3ccnc3c(-c3ccc4ncn(C5CCCCC5)c4c3)n2)cc1", "readout.number": 2.06}
{"structure": "c1ccc2c(-c3cn4ccnc4c(-c4ccc5ncn(C6CCCCC6)c5c4)n3)cccc2c1", "readout.number": 1.44}
{"structure": "c1ccc(Cn2cnc3ccc(-c4nc(-c5cccc6ccccc56)cn5ccnc45)cc32)cc1", "readout.number": 2}
{"structure": "Cc1cccc(-c2cn3ccnc3c(-c3ccc4ncn(Cc5ccccc5)c4c3)n2)c1", "readout.number": 2.16}
{"structure": "c1cn2cc(-c3ccc4ncn(C5CCCCC5)c4c3)nc(-c3ccc4ncn(C5CCCCC5)c4c3)c2n1", "readout.number": 1.19}
{"structure": "COc1ccc(-c2cn3ccnc3c(-c3ccc4ncn(C5CCCCC5)c4c3)n2)cc1", "readout.number": 1.41}
{"structure": "O=Cc1ccc(-c2cn3ccnc3c(-c3ccc4ncn(Cc5ccccc5)c4c3)n2)cc1", "readout.number": 1.88}
{"structure": "Brc1ccc(-c2cn3ccnc3c(-c3ccc4ncn(C5CCCCC5)c4c3)n2)cc1", "readout.number": 1.73}
{"structure": "c1cn2cc(-c3ccc4c(c3)ncn4C3CCCCC3)nc(-c3ccc4ncn(C5CCCCC5)c4c3)c2n1", "readout.number": 1.9}
{"structure": "c1csc(-c2cn3ccnc3c(-c3ccc4ncn(C5CCCCC5)c4c3)n2)c1", "readout.number": 1.38}
{"structure": "FC(F)(F)c1cccc(-c2cn3ccnc3c(-c3ccc4ncn(C5CCCCC5)c4c3)n2)c1", "readout.number": 1.72}
{"structure": "Cc1cccc(-c2cn3ccnc3c(-c3ccc4ncn(C5CCCCC5)c4c3)n2)c1", "readout.number": 1.87}
